# assayOverview: refractive index (Na D-line) (dimensionless); an = ratio of the nth substance listed
# experimentalConditions: 308.15 K; 101 kPa; Liquid; Standard Abbe refractometry; a2 = 3
metricName: refractive index
Answer field: number only, no words.

Below: 3 molecules and their reported refractive index.
CCC[N+](CCC)(CCC)Cc1ccccc1.[Cl-] [benzyltripropylammonium chloride] + OCC(O)CO :: 1.5011
CCC[N+](CCC)(CCC)Cc1ccccc1.[Cl-] [benzyltripropylammonium chloride] + CC(O)C(=O)O :: 1.4892
CCC[N+](CCC)(CCC)Cc1ccccc1.[Cl-] [benzyltripropylammonium chloride] + OCCO :: 1.4939

stdin: Given CCC[N+](CCC)(CCC)Cc1ccccc1.[Cl-] [benzyltripropylammonium chloride] + Oc1ccccc1 , state its recorded refractive index.
stdout: 1.5436
